Assay: Ratio of drug level in brain to plasma in rat by microdialysis assay
molecules and their reported Kp
measured-parameter: Kp

[
  {
    "molecule": "CN(CCCC(=O)NCCF)C(=O)c1ccc2c(c1)c1c(n2C)CC[C@@H](C2CCOCC2)C1",
    "cmp": "=",
    "experimental-result": 0.02
  },
  {
    "molecule": "CCNC(=O)CC[C@@H](CO)N(C)C(=O)c1ccc2c(c1)c1c(n2C)CC[C@@H](C2CCOCC2)C1",
    "cmp": "=",
    "experimental-result": 0.011
  },
  {
    "molecule": "CCS(=O)(=O)n1c2c(c3cc(C(=O)N4CCC(C)CC4)ccc31)CN(C1CCOCC1)CC2",
    "cmp": "=",
    "experimental-result": 0.07
  },
  {
    "molecule": "CN(CC(=O)NC1CC1)C(=O)c1ccc2c(c1)c1c(n2C)CC[C@@H](C2CCOCC2)C1",
    "cmp": "=",
    "experimental-result": 0.024
  },
  {
    "molecule": "CNC(=O)CC[C@@H](CO)N(C)C(=O)c1ccc2c(c1)c1c(n2C)CC[C@@H](C2CCOCC2)C1",
    "cmp": "<",
    "experimental-result": 0.02
  },
  {
    "molecule": "CCN(CC(=O)NCCF)C(=O)c1ccc2c(c1)c1c(n2C)CC[C@@H](C2CCOCC2)C1",
    "cmp": "=",
    "experimental-result": 0.068
  },
  {
    "molecule": "CCN(CC(=O)NC1CC1)C(=O)c1ccc2c(c1)c1c(n2C)CC[C@@H](C2CCOCC2)C1",
    "cmp": "=",
    "experimental-result": 0.09
  },
  {
    "molecule": "Cc1c(C(=O)c2cccc3ccccc23)c2cccc3c2n1[C@H](CN1CCOCC1)CO3 [WIN-552122]",
    "cmp": "=",
    "experimental-result": 2.3
  },
  {
    "molecule": "CN(C(=O)c1ccc2c(c1)c1c(n2C)CC[C@@H](C2CCOCC2)C1)[C@H](CO)CCC(=O)NCCF",
    "cmp": "=",
    "experimental-result": 0.025
  },
  {
    "molecule": "CN(CCCC(=O)NC1COC1)C(=O)c1ccc2c(c1)c1c(n2C)CC[C@@H](C2CCOCC2)C1",
    "cmp": "=",
    "experimental-result": 0.019
  },
  {
    "molecule": "CCCCCOc1ccc(C(=O)c2cccc3ccccc23)c2ccccc12",
    "cmp": "=",
    "experimental-result": 0.29
  },
  {
    "molecule": "CNC(=O)CCCN(C)C(=O)c1ccc2c(c1)c1c(n2C)CC[C@@H](C2CCOCC2)C1",
    "cmp": "=",
    "experimental-result": 0.02
  },
  {
    "molecule": "CCN(CCCC(=O)NCCO)C(=O)c1ccc2c(c1)c1c(n2C)CC[C@@H](C2CCOCC2)C1",
    "cmp": "<",
    "experimental-result": 0.02
  }
]
